assay: Cytotoxicity against human L02 cells assessed as inhibition of cell growth incubated for 48 hrs by MTT assay; format: toxicity, cell-based
measurement name: IC50 at 48 h

Supply reported IC50 at 48 h belonging to this compound: COc1ccc2[nH]c3c(C(=O)/C=C/c4c(C)cccc4C)nccc3c2c1
> 20 µM

Provide only the value of recorded IC50 at 48 h for COc1ccc2[nH]c3c(C(=O)/C=C/C=C/c4ccccc4)nccc3c2c1
> 20 µM

Please list IC50 at 48 h recorded for the compound CCc1ccc(/C=C/C(=O)c2nccc3c2[nH]c2ccccc23)cc1
> 20 µM

Name the recorded IC50 at 48 h of the item O=C(/C=C/c1cc(Cl)ccc1Cl)c1nccc2c1[nH]c1ccccc12 in your answer.
9.91 µM

In one line, give reported IC50 at 48 h of the entry COc1ccc2[nH]c3c(C(=O)/C=C/c4c(OC)cccc4OC)nccc3c2c1 .
> 20 µM

Give reported IC50 at 48 h value for COc1ccc2[nH]c3c(C(=O)/C=C/c4ccc(OC)c(OC)c4OC)nccc3c2c1
> 20 µM

Indicate the recorded IC50 at 48 h value for this compound: O=C(/C=C/c1ccc2c(c1)OCCO2)c1nccc2c1[nH]c1ccccc12
> 20 µM

Write down IC50 at 48 h measured for item COc1ccc2c(c1)[nH]c1c(C)nccc12
9.49 µM

Indicate the recorded IC50 at 48 h value for this compound: O=C(/C=C/c1ccc([N+](=O)[O-])cc1)c1nccc2c1[nH]c1ccccc12
> 20 µM

For the compound COc1ccc2[nH]c3c(C(=O)/C=C/c4ccc(Cl)c(C)c4)nccc3c2c1 , give its measured IC50 at 48 h value.
> 20 µM

This collection of values is drawn from ChEMBL document CHEMBL5518180.
